Tested on: HeLa
assay comment: Cytotoxicity against human HeLa cells at 200 ug/ml after 24 hrs by MTT based colorimetric assay
Assay type: cell-based
result type: Activity

{"columns": ["compound", "experimental target", "data value"],
 "data": [
  ["CCCCCCCCCc1ccc(OCCOCCOCCOCCOCCOCCOCCOCCOCCO)cc1", "HeLa", "Non-toxic"],
  ["OC(CCn1ccnc1)c1ccccc1 (stereo not drawn)", "HeLa", "Non-toxic"],
  ["Cc1ncc([N+](=O)[O-])n1CCC(O)c1ccccc1 (stereo not drawn)", "HeLa", "Non-toxic"],
  ["OC(CCn1cncn1)c1ccccc1 (stereo not drawn)", "HeLa", "Non-toxic"],
  ["O=C(CCn1cnc([N+](=O)[O-])c1)c1ccccc1", "HeLa", "Non-toxic"],
  ["FC(F)(F)c1ccc(OC(CCn2cnc3ccccc32)c2ccccc2)cc1 (stereo not drawn)", "HeLa", "Toxic"],
  ["OC(CCn1nnc2ccccc21)c1ccccc1 (stereo not drawn)", "HeLa", "Non-toxic"],
  ["Cc1nccn1CCC(=O)c1ccccc1", "HeLa", "Toxic"]
]}
